# Measured on: T1, PCI-Flag (human, UniProt P05154 26-406, limits assumed)
# T1 construct: Full-length human PCI ORF with a C-terminal Flag tag, secreted by CHO cells and purified from the culture supernatant; also called Flag-tagged PCI
# T1 chain: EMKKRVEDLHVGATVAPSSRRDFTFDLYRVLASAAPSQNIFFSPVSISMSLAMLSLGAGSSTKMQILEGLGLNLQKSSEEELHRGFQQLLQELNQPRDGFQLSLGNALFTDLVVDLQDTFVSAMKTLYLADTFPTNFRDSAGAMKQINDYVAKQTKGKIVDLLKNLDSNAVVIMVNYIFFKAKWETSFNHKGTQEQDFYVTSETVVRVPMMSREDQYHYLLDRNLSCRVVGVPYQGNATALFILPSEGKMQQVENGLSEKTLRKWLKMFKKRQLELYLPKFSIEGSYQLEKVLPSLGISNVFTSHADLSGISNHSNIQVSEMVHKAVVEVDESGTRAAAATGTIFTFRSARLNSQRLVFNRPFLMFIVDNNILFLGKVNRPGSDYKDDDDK
# Experiment summary: SPR (BIACORE 2000), PCI-Flag amine-coupled to CM5 chip, antibody injected
Below, each entry is listed with its recorded Kd.
Dear colleague, please return just the value in nM, with no unit written.

PC39C6 (antibody, IgG1, V domains shown, Mouse hybridoma monoclonal, IgG1, purified on Protein G; also called anti-PCI neutralizing antibody) VH: EVQLQQSGAELVRPGALVKLSCKASGFNIKDYYIHWVKQRPEQGLEWIGRIDLEKGNIIYDPKFQGKDNITADTSSNTAYLQLSSLTSEDTAVYYCARGGYDVPSFAYWGQGTLVTVSA VL: QIVLTQSPAIMSASPGEKVTITCSASSSVSYMHWFQQKPGTSPKLWIYSTSNLASGVPARFSGSGSGTSYSLTISRMEAEDAATYYCQQRSSYPFTFGSGTKLEIK
5.51
PC23D8 (antibody, IgG2a, V domains shown, also called anti-PCI neutralizing antibody) VH: EVQLQQSGAELVKPGASVKLSCTASGFDIKDTFMHWVKQRPEQGLEWIGRIDYVNGNTKYDPKFQGKATITGDTSSNTAYLQLSSLTSEDTAVYYCARGGYDVREFAYWGQGTLVTVSA VL: QIVLTQSPAIMSASPGEKVTITCSATSSLIYMHWFQQKPGSSPELWIYSTSNLASGVPARFSGSGSGTSYSLTISRMEAEDAATYYCQQRSSYPFTFGSGTKLEIK
0.293
PC19G8 (antibody, IgG1, V domains shown, also called clone #19G8; anti-PCI neutralizing antibody) VH: EVQLQQSGAELVKPGASVKLSCTASGFDIKDTFMHWVKQRPEQGLEWIGRIDYVNGNTKYDPKFQGKATITGDTSSNTAYLQLSSLTSEDTAVYYCARGGYDVREFAYWGQGTLVTVSA VL: QIVLTQSPAIMSASPGEKVTITCSATSSLIYMHWFQQKPGSSPELWIYSTSNLASGVPARFSGSGSGTSYSLTISRMEAEDAATYYCQQRSSYPFTFGSGTKLEIK
0.126
PC31E2 (antibody, V domains shown, also called anti-PCI neutralizing antibody) VH: QVQLQQSGAELVKPGASVKMSCKAFGYTFTTYPIEWMKQNHGKSLEWIGKFHPDNDDTNYNEKFKGKAKLTVEKSSSTVYLELSRLTSDDSAVYYCARGHDYDYGMDYWGQGTSVTVSS VL: DIVLTQSPASLAVSLGQRATISCKASQSVDYDGDSYLNWYQQKPGQPPKLLIYGASNLESGTPARFSGSGSGTDFTLDIHPVEEEDAATYYCQQSNEDPPTFGGGTKLEIT
1.79

Switching to the query record.
(Q) Would you mind telling me what Kd value was observed for PC23A7 (antibody, IgG2a, V domains shown, Mouse hybridoma monoclonal, IgG2a, purified on Protein G; also called anti-PCI neutralizing antibody) VH: EVQLQQSGAELVKPGASVKLSCTASGFDIRDTFMHWVKQRPEQGLEWIGRIDLVNVNTKYDPNFQDRATITADTSSNTAYLQLTSLTSEDTAVYYCARGGYDVREFAYWGQGTLVTVSA VL: QIVLTQSPAIMSASPGEKVTITCSATSSLIYMHWFQQKPGTSPKLWIYSTSNLASGVPARFSGSGSGTSYSLTISRMEAEDAATYYCQQRSSYPFTFGSGTKLEIK ?
(A) 0.473
